# System: U2OS
# protocol.details: Multiplex assay against U2OS
# Assay type: toxicity, cell-based
# test.conditions: human, 24 h, 1 µM, compound concentration 1 uM, replicate 2
reported.endpoint: Population Membrane Permeable-Phenotype (%)
Hi! Could you send only the number? It should be in %, unit omitted.

Look over these answered cases.
CNC(=O)c1nn(C)c2c1C(C)(C)Cc1cnc(Nc3ccc(N4CCN(C)CC4)cc3)nc1-2 [MILCICLIB]; 22
Cc1cc2c(cc1N1C(=O)c3cccc4c(CCCO)ccc(c34)C1=O)n(C)c(=O)n2C; 0
c1ccc2oc(-c3csc(C4CCN(Cc5nc6ncccc6[nH]5)CC4)n3)cc2c1; 9
CC(=O)c1cc(-c2cc(C(=O)NC3CC3)ccc2C)c2ncccn12; 3
CCC(=O)O[C@]1(C(=O)SCF)[C@H](C)C[C@H]2[C@@H]3C[C@H](F)C4=CC(=O)C=C[C@]4(C)[C@@]3(F)[C@@H](O)C[C@@]21C [FLUTICASONE PROPIONATE]; 11

Task: Return reported Population Membrane Permeable-Phenotype (%). Input compound: CN(C)CCOc1ccc(-c2nc(-c3ccncc3)c(-c3ccc4c(c3)CC/C4=N\O)[nH]2)cc1 [SB590885]
Result: 33

Task: Give Population Membrane Permeable-Phenotype (%) for the following compound: CNC(=O)c1cc(Oc2ccc(NC(=O)Nc3cc(C(C)(C)C)nn3-c3ccc4ncccc4c3)c(F)c2)ccn1 [REBASTINIB]
Result: 14

Task: Give the value of Population Membrane Permeable-Phenotype (%) reported for the following: CCn1c(-c2nonc2N)nc2cnc(Oc3cccc(NC(=O)c4ccc(OCCN5CCOCC5)cc4)c3)cc21 [GSK-269962A]
Result: 1

Task: Report measured Population Membrane Permeable-Phenotype (%); entry is COc1cc2c(NC3CCN(C(C)C)CC3)nc(N3CCC(F)(F)CC3)nc2cc1OCCCN1CCCC1
Result: 2

Task: Determine from records and report Population Membrane Permeable-Phenotype (%) for N#Cc1cnc(Nc2cc(NC[C@H]3CNCCO3)c(C(F)(F)F)cn2)cn1 [SRA-737]
Result: 6

Task: Please supply the value of reported Population Membrane Permeable-Phenotype (%) for the item Cl.Cl.Nc1ncnc2c1c(-c1cccc(OCc3ccccc3)c1)cn2[C@H]1C[C@@H](CN2CCC2)C1
Result: 4

Task: Output Population Membrane Permeable-Phenotype (%) of CC(C)(C)c1cnc(CSc2cnc(NC(=O)C3CCNCC3)s2)o1 [BMS-387032]
Result: 22

Task: Note Population Membrane Permeable-Phenotype (%) for the compound shown: Nc1nc2c(c(N3CCNCC3)n1)CCC1=C2[C@@H]2CCCC[C@@H]2O1
Result: 6

Task: Answer with reported Population Membrane Permeable-Phenotype (%) of CCc1cc2c(cc1CC)CC(NC[C@H](O)c1ccc(O)c3[nH]c(=O)ccc13)C2 [INDACATEROL]
Result: 0

Task: Could you please provide reported Population Membrane Permeable-Phenotype (%) for CC(C)Oc1ccc(C(=O)N[C@H](CNC(=O)CN(C)C)Cc2ccc(-c3cn4cccc([C@H](C)O)c4n3)cc2)cc1Cl [GSK-923295A] ? Thanks!
Result: 19

Task: Look up and state reported Population Membrane Permeable-Phenotype (%) for O=C(O)c1ccc2cc(-c3ccc(O)c(C45CC6CC(CC(C6)C4)C5)c3)ccc2c1 [O-DEMETHYLATED ADAPALENE]
Result: 6
